// reported Umsatz for each item listed
Target: OYE3 (Saccharomyces cerevisiae, UniProt P41816)
Construct: made in house; host or cells: E. coli BL21(DE3)
Sequence (P41816 whole entry): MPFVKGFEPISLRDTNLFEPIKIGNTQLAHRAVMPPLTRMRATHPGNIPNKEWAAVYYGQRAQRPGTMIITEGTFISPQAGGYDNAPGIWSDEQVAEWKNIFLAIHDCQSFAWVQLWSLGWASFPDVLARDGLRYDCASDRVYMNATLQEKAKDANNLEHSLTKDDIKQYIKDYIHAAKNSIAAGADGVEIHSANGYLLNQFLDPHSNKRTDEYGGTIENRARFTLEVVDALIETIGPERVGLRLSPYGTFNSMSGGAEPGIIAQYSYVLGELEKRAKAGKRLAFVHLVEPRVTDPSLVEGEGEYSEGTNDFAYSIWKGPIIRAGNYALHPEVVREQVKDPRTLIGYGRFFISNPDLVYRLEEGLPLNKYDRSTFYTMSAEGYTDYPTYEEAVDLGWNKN
Test: Reactivity screening of oximes with purified ene-reductase, conversion by GC-FID
Type: biochemical
Details: OYE3 100 µg/ml, 10 mM Oxim, 0,5 mM NAD(P)H/H+, Glucose/GDH, Tris-HCl pH 7,5, 30 °C, 24 h
Excerpt: Die En-Reduktase ist zwar nicht speziell eingeschränkt, ist aber vorzugsweise aus der OYE-Familie, d.h. der Familie der "Old Yellow Enzymes" ausgewählt, da Vertreter dieser Gruppe von Enzymen allesamt gute Ergebnisse geliefert haben. […]
Experimental Endpoint: Umsatz

> print(dat)
                                   compound  observed
1  C=CCOC(=O)C(=NO)C(C)=O [(1c), 2-Oximinoacetessigsäureallylester]     > 99%
2             COCCOC(=O)C(=NO)C(C)=O [(1g)]     > 99%
3  CC(=O)C(=NO)C(=O)OCc1ccccc1 [(1e), 2-Oximinoacetessigsäurebenzylester]     > 99%
4  CCOC(=O)C(=NO)C(C)=O [(1a), 2-Oximinoacetessigsäureethylester, reference compound]     > 99%
5  CCCCOC(=O)C(=NO)C(C)=O [(1d), 2-Oximinoacetessigsäurebutylester]     > 99%
6  CC(=O)C(=NO)C(=O)Nc1ccccc1 [(1b), 2-Oximinoacetessigsäure-N-phenylamid]     > 99%
7              CCOC(=O)C(=NO)C(=O)CC [(1h)]     > 99%
8  CCCCCCCOC(=O)C(=NO)C(C)=O [(1f), 2-Oximinoacetessigsäureheptylester]     > 99%
